This section presents compounds with their documented T/C values.
- System: P388 leukemia ip, CD2F1 mice, survival T/C
- Procedure text: NCI In Vivo Anticancer Drug Screen. Data for tumor model P388 Leukemia (intraperitoneal) in CD2F1 (CDF1) mice
- Measurement context: endpoint: median survival time; dose: 100.0 mg/kg/injection; schedule: Q01DX005 (ip); vehicle: saline with Tween-80; higher = longer survival
Toxic doses and inconclusive results are not listed.
Measured attribute: T/C

O=C1CN(c2cccc(C(F)(F)F)c2)C(=O)CN1/N=C/c1ccc[nH]1 = 100 % of control
O=[N+]([O-])c1ccc(SN2CCCCC2)c([N+](=O)[O-])c1 = 100 % of control
C=Cc1ccc(NC(=O)CC2SC(=O)NC2=O)cc1 (stereo not given) = 97 % of control
CN(Cc1cccc2ccccc12)Cc1cccc2ccccc12 = 89 % of control
C#Cc1cccc(N=Cc2cc(Cl)cc(Br)c2O)c1 = 102 % of control
COc1ccc(/C=C/C(C)=N/NC(N)=O)cc1OC = 102 % of control
Cc1c[n+]([O-])n(-c2ccccc2)n1 = 97 % of control
OCC1OC(O)C(N=C/C=C/c2ccccc2)C(O)C1O (stereo not given) = 117 % of control
Cc1cc2nnc(-c3cccc([N+](=O)[O-])c3)n2c2nnnn12 = 98 % of control
CC(=O)NC(CSc1ccccc1)C(=O)O (stereo not given) = 100 % of control
Cc1nn(C)c(=S)[nH]c1=O = 106 % of control
CCCCN1CCNC1=S = 102 % of control
CCOC(=O)C1(C)C(=O)CC(c2ccccc2)CC1c1ccccc1 (stereo not given) = 96 % of control
Cc1c(Cl)cccc1Nc1ncccc1C(=O)OCC(O)CO (stereo not given) = 98 % of control
NS(=O)(=O)c1ccc(N=c2c3ccccc3n(-c3ccccc3)c3ccccc23)cc1 = 93 % of control
O=C1CC2c3ccccc3CCN2C2=C1CCC2 (stereo not given) = 104 % of control
C=C(c1ccc(Cl)cc1)c1ccc(OC)c(OC)c1 = 99 % of control
Cc1ccc(S(=O)(=O)C(C)(C)C(O)c2ccccc2)cc1 (stereo not given) = 99 % of control
CC(=O)OC12CC3CCC4C(CCC5(C)C(C(C)CCCC(C)C)CCC45)C3(C)CC1C(Cl)C2=O (stereo not given) = 96 % of control
COc1ccc(S(=O)(=O)N/N=C/c2ncc[nH]2)cc1 = 100 % of control
CCOc1cccc2c1CCC(O[Si](C)(C)C(C)(C)C)C2 (stereo not given) = 95 % of control
N#CC1=C(N)OC(/C=C/c2ccccc2)=C(C#N)C1c1ccccc1 (stereo not given) = 98 % of control
CC(c1ccc(OCc2ccccc2)cc1)c1cc2c(cc1OCCO)OCO2 (stereo not given) = 100 % of control
O=C1c2cccc3c([N+](=O)[O-])ccc(c23)C(=O)N1CCc1ccccn1 = 111 % of control
CCOC(=O)CC1=CSC(=C(C#N)C#N)N1c1ccccc1 = 98 % of control
O=C(Nc1ccc(Cc2ccc(NC(=O)C34CC5CC(CC(C5)C3)C4)cc2)cc1)C12CC3CC(CC(C3)C1)C2 = 88 % of control
C[C@]12Cc3cnc(N)nc3C[C@@H]1CC[C@@H]1[C@@H]2CC[C@@]2(C)[C@H]1CC[C@]2(C)O = 89 % of control
COc1cccc2c1ccc1nonc12 = 88 % of control
Nc1ccc(-c2csc(Nc3ccnc4cc(Cl)ccc34)n2)cc1 = 93 % of control
CC(O)(CSc1ccccc1)CSc1ccccc1 (tested in a mixture with another compound) = 98 % of control
Cn1c2ccccc2c(=O)c2cc(NC(=O)CCCCCCCC(=O)Nc3ccc4c(c3)c(=O)c3ccccc3n4C)ccc21 = 97 % of control
CCCC(CC)(C(=O)Nc1ccc2nc(C)cc(N)c2c1)C(=O)Nc1ccc2nc(C)cc(N)c2c1 = 93 % of control
COc1ccccc1-n1c(=S)n(-c2ccccc2C)c2nc3ccccc3nc1/c2=N\Nc1ccccn1 = 102 % of control
COC(=O)c1c(C(=O)OC)c2c(C)nn3ccc1n23 = 98 % of control
CC(C)=CCCC1(C)C=Cc2c(ccc3c(C)coc23)O1 (stereo not given) = 100 % of control
Nc1nc2cc3[nH]ncc3cc2c(=O)[nH]1 = 101 % of control
CCCCN(CCCC)CCNC(c1ccc(OC)cc1)c1ccc(OC)cc1 = 93 % of control
C=CCC(CC)(C(=O)Nc1ccc2nc(C)cc(N)c2c1)C(=O)Nc1ccc2nc(C)cc(N)c2c1 = 87 % of control
CN(C)c1ccc2ccc(=O)[nH]c2c1 = 108 % of control
O=C(NCCN1CCC(n2c(=O)[nH]c3cc(Cl)ccc32)CC1)c1ccc(F)cc1 = 88 % of control
O=C(NCCCCCCCCNC(=O)C12CC3CC(CC(C3)C1)C2)C12CC3CC(CC(C3)C1)C2 = 86 % of control
COC(=O)c1cc(=O)c2scc(C)[n+]2[nH]1 = 100 % of control
O=C(O)C1CC(Cl)C(O)C(Cl)C1 (stereo not given) = 97 % of control
Clc1ccccc1-c1nnc(-c2cccc(-c3nnc(-c4ccccc4Cl)s3)c2)s1 = 89 % of control
NC(=O)N=Nc1ccc(Br)cc1 = 102 % of control
